Readings of IC50, Abeta x-40 in mouse cortical neurons for the listed binders
# measured-on: BACE1 in primary mouse cortical neurons (mouse, UniProt P56818 46-501)
# Sequence (P56818 46-501): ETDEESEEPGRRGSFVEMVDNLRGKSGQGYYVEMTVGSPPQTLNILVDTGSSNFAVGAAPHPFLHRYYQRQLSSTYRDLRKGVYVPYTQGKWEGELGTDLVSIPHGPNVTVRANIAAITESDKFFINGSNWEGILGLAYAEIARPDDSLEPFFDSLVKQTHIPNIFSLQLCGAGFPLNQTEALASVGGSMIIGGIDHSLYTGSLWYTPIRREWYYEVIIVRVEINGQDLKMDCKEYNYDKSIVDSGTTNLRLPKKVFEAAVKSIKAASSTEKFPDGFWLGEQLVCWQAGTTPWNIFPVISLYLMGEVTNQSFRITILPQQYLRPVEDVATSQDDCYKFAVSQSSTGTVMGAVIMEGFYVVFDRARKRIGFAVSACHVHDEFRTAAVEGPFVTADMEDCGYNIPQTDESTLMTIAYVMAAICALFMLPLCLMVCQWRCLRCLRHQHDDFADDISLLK
# assay-details: cell-based or functional assay
Give just the number in nM; leave the unit off.

These recorded examples may help you get a feel for the data.
>  <binder>
5894 (antibody, V domains shown, anti-BACE1 IgG) VH: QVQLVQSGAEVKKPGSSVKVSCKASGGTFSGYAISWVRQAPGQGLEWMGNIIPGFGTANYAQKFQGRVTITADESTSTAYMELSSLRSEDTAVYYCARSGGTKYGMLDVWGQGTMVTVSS VL: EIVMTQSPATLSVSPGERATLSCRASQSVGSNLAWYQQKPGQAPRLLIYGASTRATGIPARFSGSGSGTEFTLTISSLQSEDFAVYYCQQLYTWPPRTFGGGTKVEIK

>  <unit-text>
nM

>  <observed-measurement>
6.48

$$$$
>  <binder>
5893 (antibody, V domains shown, anti-BACE1 IgG) VH: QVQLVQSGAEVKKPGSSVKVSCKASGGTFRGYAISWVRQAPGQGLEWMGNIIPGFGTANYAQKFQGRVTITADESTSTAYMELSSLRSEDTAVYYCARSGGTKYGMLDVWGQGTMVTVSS VL: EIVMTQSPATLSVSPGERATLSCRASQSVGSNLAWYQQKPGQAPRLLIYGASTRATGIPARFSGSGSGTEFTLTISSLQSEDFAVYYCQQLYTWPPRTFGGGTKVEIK

>  <unit-text>
nM

>  <observed-measurement>
9.46

$$$$

[ask] Any idea what its IC50, Abeta x-40 in mouse cortical neurons is? The binder is 5260 (antibody, V domains shown, anti-BACE1 IgG) VH: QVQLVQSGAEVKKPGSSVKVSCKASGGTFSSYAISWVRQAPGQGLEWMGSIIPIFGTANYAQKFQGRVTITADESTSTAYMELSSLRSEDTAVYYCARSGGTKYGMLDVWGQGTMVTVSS VL: EIVMTQSPATLSVSPGERATLSCRASQSVGSNLAWYQQKPGQAPRLLIYGASTRATGIPARFSGSGSGTEFTLTISSLQSEDFAVYYCQQAVVWPPRTFGGGTKVEIK
[reply] 46.7
